Molecular target: bradykinin receptors on intestinal (ileal longitudinal) smooth muscle (Cavia porcellus, UniProt O70526)
Construct: The longitudinal muscle was separated from the underlying circular muscle; from tissue; host or cells: guinea pig ileal longitudinal smooth muscle strips
Assay: Bradykinin antagonist activity on guinea pig ileal longitudinal smooth muscle (contraction, Schild analysis)
Assay type: cell-based
Conditions: antagonism of bradykinin-induced contraction, guinea pig ileum longitudinal muscle, read-out: pA2 (converted)
// Kb lookup, one value per entry
Give just the number in µM; leave the unit off.

chemical smiles	experimental value
CCCO[C@@H]1C[C@@H](C(=O)N[C@@H](CCCNC(=N)N)C(=O)O)N(C(=O)[C@H]2Cc3ccccc3CN2C(=O)[C@H](CO)NC(=O)[C@H](Cc2cccs2)NC(=O)CNC(=O)[C@@H]2C[C@@H](O)CN2C(=O)[C@@H]2CCCN2C(=O)[C@H](CCCNC(=N)N)NC(=O)[C@H](N)CCCNC(=N)N)C1	0.138

Continue with the compound presented below.
The reported value for CCCO[C@H]1C[C@@H](C(=O)N[C@@H](CCCNC(=N)N)C(=O)O)N(C(=O)[C@H]2Cc3ccccc3CN2C(=O)[C@H](CO)NC(=O)[C@H](Cc2cccs2)NC(=O)CNC(=O)[C@@H]2C[C@@H](O)CN2C(=O)[C@@H]2CCCN2C(=O)[C@H](CCCNC(=N)N)NC(=O)[C@H](N)CCCNC(=N)N)C1 in terms of Kb is 0.224

###

Biological target: UniProt:O70526
Sequence (O70526 1-372): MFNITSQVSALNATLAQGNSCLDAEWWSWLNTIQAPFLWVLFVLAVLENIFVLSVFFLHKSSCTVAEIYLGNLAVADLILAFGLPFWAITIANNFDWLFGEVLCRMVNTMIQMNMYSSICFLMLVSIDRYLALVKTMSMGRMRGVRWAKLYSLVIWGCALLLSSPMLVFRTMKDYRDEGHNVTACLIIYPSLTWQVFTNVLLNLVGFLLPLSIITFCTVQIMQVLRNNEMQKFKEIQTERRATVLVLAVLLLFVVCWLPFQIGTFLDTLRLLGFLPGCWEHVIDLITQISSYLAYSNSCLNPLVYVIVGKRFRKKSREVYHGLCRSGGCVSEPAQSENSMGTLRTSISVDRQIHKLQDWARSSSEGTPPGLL
*1 amine or outer side, *2 acyl side, *3 side chain or, on linkers, in order; H or OH if unused. Where a SMILES comes first, the peptide text is derived from it. [ ]: non-standard residue; d: D form. X3 = O=C([C@@H]1C[C@H](Oc2ccc([N+](=O)[O-])cc2)CN1[*:1])[*:2]; Pro(cis-4-OPh) = O=C(O)[C@@H]1C[C@H](Oc2ccccc2)CN1; Hyp = O=C(O)[C@@H]1C[C@@H](O)CN1; dTic = O=C(O)[C@H]1Cc2ccccc2CN1
value kind: Ki (nM)
Give just the number in nM; leave the unit off.

compound	Ki [nM]
N=C(N)NCCC[C@@H](N)C(=O)N[C@@H](CCCNC(=N)N)C(=O)N1CCC[C@H]1C(=O)N1C[C@H](O)C[C@H]1C(=O)NCC(=O)N[C@@H](Cc1ccccc1)C(=O)N[C@@H](CO)C(=O)N1Cc2ccccc2C[C@@H]1C(=O)N1C[C@@H](Oc2ccc([N+](=O)[O-])cc2)C[C@H]1C(=O)N[C@@H](CCCNC(=N)N)C(=O)O (H-[dR]RP[Hyp]GFS[dTic][X3]R-OH)	3.98
N=C(N)NCCC[C@@H](N)C(=O)N[C@@H](CCCNC(=N)N)C(=O)N1CCC[C@H]1C(=O)N1C[C@H](O)C[C@H]1C(=O)NCC(=O)N[C@@H](Cc1cccs1)C(=O)N[C@@H](CO)C(=O)N1Cc2ccccc2C[C@@H]1C(=O)N1C[C@H](OC(=O)Nc2ccccc2)C[C@H]1C(=O)N[C@@H](CCCNC(=N)N)C(=O)O	11.5

Continue with the compound presented below.
The reported value for N=C(N)NCCC[C@@H](N)C(=O)N[C@@H](CCCNC(=N)N)C(=O)N1CCC[C@H]1C(=O)N1C[C@H](O)C[C@H]1C(=O)NCC(=O)N[C@@H](Cc1ccccc1)C(=O)N[C@@H](CO)C(=O)N1Cc2ccccc2C[C@@H]1C(=O)N1C[C@@H](Oc2ccccc2)C[C@H]1C(=O)N[C@@H](CCCNC(=N)N)C(=O)O (H-[dR]RP[Hyp]GFS[dTic][Pro(cis-4-OPh)]R-OH) in terms of Ki is 2.51

###

Biological target: bradykinin receptors on intestinal (ileal longitudinal) smooth muscle (Cavia porcellus)
Construct: The longitudinal muscle was separated from the underlying circular muscle; from tissue; host or cells: guinea pig ileal longitudinal smooth muscle strips
Sequence (O70526 1-372): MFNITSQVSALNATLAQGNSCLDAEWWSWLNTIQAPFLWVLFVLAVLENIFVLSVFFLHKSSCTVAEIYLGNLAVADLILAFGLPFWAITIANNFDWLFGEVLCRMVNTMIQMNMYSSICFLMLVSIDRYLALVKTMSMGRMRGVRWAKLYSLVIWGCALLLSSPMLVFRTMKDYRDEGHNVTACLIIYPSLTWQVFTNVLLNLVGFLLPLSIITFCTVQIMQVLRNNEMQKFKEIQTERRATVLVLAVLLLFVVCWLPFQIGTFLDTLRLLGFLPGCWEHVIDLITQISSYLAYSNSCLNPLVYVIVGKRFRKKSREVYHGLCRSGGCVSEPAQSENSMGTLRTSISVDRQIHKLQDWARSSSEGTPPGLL
Experiment: Bradykinin antagonist activity on guinea pig ileal longitudinal smooth muscle (contraction, Schild analysis)
Format: cell-based
Conditions: antagonism of bradykinin-induced contraction, guinea pig ileum longitudinal muscle, read-out: pA2 (converted)
*1 amine or outer side, *2 acyl side, *3 side chain or, on linkers, in order; H or OH if unused. Where a SMILES comes first, the peptide text is derived from it. [ ]: non-standard residue; d: D form. X3 = O=C([C@@H]1C[C@H](Oc2ccc([N+](=O)[O-])cc2)CN1[*:1])[*:2]; Hyp = O=C(O)[C@@H]1C[C@@H](O)CN1; dTic = O=C(O)[C@H]1Cc2ccccc2CN1
value kind: Kb (nM)
Give just the number in nM; leave the unit off.

molecule	measurement target	Kb (nM)
CO[C@H]1C[C@@H](C(=O)N[C@@H](CCCNC(=N)N)C(=O)O)N(C(=O)[C@H]2Cc3ccccc3CN2C(=O)[C@H](CO)NC(=O)[C@H](Cc2cccs2)NC(=O)CNC(=O)[C@@H]2C[C@@H](O)CN2C(=O)[C@@H]2CCCN2C(=O)[C@H](CCCNC(=N)N)NC(=O)[C@H](N)CCCNC(=N)N)C1	bradykinin receptors on intestinal (ileal longitudinal) smooth muscle (Cavia porcellus)	141

bradykinin receptors on intestinal (ileal longitudinal) smooth muscle (Cavia porcellus) data for N=C(N)NCCC[C@@H](N)C(=O)N[C@@H](CCCNC(=N)N)C(=O)N1CCC[C@H]1C(=O)N1C[C@H](O)C[C@H]1C(=O)NCC(=O)N[C@@H](Cc1ccccc1)C(=O)N[C@@H](CO)C(=O)N1Cc2ccccc2C[C@@H]1C(=O)N1C[C@@H](Oc2ccc([N+](=O)[O-])cc2)C[C@H]1C(=O)N[C@@H](CCCNC(=N)N)C(=O)O (H-[dR]RP[Hyp]GFS[dTic][X3]R-OH) ; its Kb: 138

Origin of values: patent US6288036A
